- Test system: RARg homodimer (NR concentration 270 nM)
- measurement_description: PBM binding z-score (relative to random genomic background probes); higher = stronger binding; sequences stand for … in GC…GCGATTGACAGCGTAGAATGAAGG
Reported PBM binding z-score values follow for various sequences
attribute_measured: PBM binding z-score

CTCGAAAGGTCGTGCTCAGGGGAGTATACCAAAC    3.44
GCAGCTAGGTCAGGTTGGTCAGCTAACGGGTACG    3.77
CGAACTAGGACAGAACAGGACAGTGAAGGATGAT    0.538
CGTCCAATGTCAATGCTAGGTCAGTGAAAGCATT    1.98
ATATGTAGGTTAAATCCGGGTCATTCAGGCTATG    2.25
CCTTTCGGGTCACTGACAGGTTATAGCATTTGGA    4.91
GTACCAAGGTAAATAGGTCGTTGATGAGTAGGCG    0.391
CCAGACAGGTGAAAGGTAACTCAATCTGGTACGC    0.946
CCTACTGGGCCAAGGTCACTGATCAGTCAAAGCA    4.29
TCATCTAGGTAAATGCTAGGTGAAAGTCCGATCT    0.0447
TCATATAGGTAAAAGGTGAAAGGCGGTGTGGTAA    0.736
GCAGATAGGTGAAACGCAGGTAACTCAGGGTGGC    0.288
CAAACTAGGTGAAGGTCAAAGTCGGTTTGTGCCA    4.37
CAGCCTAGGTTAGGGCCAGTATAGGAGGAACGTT    0.349
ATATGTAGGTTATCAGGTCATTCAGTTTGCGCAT    2.93
ATCGCTAGGTAACCAAGTTCAGTGAATGCCGAAC    0.277
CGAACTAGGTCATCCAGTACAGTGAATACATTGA    4.84
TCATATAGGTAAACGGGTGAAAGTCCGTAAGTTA    0.128
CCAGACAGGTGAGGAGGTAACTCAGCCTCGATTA    0.304
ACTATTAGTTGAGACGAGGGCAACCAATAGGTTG    0.987
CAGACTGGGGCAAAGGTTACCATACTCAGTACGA    2.64
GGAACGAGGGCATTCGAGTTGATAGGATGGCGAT    1.28
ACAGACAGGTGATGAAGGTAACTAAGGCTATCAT    0.552
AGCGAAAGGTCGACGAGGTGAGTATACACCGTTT    4.03
ACTATTAGTTGACTTAGGGCAACCGATACGACGC    1.01
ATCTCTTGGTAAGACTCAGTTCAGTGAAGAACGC    0.186
CCTCAAAGTTCAAGGTAACGTAACAGAAAGCAGC    6.39
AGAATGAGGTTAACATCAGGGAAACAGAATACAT    2.01
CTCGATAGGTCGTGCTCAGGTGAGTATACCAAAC    1.2
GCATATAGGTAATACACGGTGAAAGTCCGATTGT    0.397
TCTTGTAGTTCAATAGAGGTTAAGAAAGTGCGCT    2
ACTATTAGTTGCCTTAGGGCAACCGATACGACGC    0.732
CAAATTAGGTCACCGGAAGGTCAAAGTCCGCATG    7.57
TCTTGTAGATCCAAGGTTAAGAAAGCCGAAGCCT    0.0629
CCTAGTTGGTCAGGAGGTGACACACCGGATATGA    1.22
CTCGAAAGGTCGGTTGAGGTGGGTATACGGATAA    2.25
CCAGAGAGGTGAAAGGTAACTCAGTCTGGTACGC    1.44
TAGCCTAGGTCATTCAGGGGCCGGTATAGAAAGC    4.21
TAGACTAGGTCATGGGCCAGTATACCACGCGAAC    4.47
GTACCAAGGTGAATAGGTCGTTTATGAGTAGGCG    1.2
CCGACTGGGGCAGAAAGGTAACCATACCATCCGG    0.586
CCTACTGGGCCACGATAGGTCATTGATTCAGTGA    2.17
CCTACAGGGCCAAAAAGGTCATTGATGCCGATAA    4.56
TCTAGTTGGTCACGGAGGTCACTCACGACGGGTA    4.31
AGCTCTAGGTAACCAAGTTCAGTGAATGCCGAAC    0.348
